assay: AUC (0 to infinity) in Sprague-Dawley rat at 50 mg/kg, po administered as single dose; format: ADME, organism-based; set-up: dose 50 mg/kg, route oral, time infinity; settings: in vivo
measured attribute: AUC(0-inf) (ng·h/mL)
Answers are plain numbers, in ng·h/mL.

Query (molecule): O[C@H](C[C@H]1c2c(F)cccc2-c2cncn21)[C@H]1CC[C@H](O)CC1 [NAVOXIMOD] ; field requested: AUC(0-inf) 15400

###

assay: AUC (0 to infinity) in dog at 25 mg/kg, iv administered as single dose; type: ADME, organism-based, Canis lupus familiaris; parameters: dose 25 mg/kg, route intravenous, time infinity; details: in vivo
measured attribute: AUC(0-inf) (ng·h/mL)
Numbers only, in ng·h/mL.

Query (compound): O[C@H](C[C@H]1c2c(F)cccc2-c2cncn21)[C@H]1CC[C@H](O)CC1 ; field requested: AUC(0-inf) 10000

###

test: Oral bioavailability in C57Bl6 mouse at 100 mg/kg administered as single dose; assay type: ADME, organism-based; conditions: in vivo
measured attribute: bioavailability
# answer = value followed by unit

Query (compound): O[C@H](C[C@H]1c2c(F)cccc2-c2cncn21)[C@H]1CC[C@H](O)CC1 ; field requested: bioavailability 87%

###

test: AUC (0 to infinity) in rat at 250 mg/kg administered twice daily for 28 days with 2 week recovery; type: ADME, organism-based; design: dose 250 mg/kg, time infinity; conditions: in vivo
measured attribute: AUC(0-inf)
# answer = value followed by unit

Query (compound): O[C@H](C[C@H]1c2c(F)cccc2-c2cncn21)[C@H]1CC[C@H](O)CC1 ; field requested: AUC(0-inf) 22500 ng·h/mL

###

assay: Cmax in Sprague-Dawley rat at 10 mg/kg, po administered as single dose; format: ADME, organism-based; design: dose 10 mg/kg, route oral; settings: in vivo
measured attribute: Cmax (ng/mL)
Answers are plain numbers, in ng/mL.

Query (molecule): O[C@H](C[C@H]1c2c(F)cccc2-c2cncn21)[C@H]1CC[C@H](O)CC1 ; field requested: Cmax 1560

###

assay: AUC (0 to infinity) in Sprague-Dawley rat at 10 mg/kg, iv administered as single dose; format: ADME, organism-based; set-up: dose 10 mg/kg, time infinity, route intravenous; details: in vivo
measured attribute: AUC(0-inf) (ng·h/mL)
One number for each entry, in ng·h/mL.

Query (compound): O[C@H](C[C@H]1c2c(F)cccc2-c2cncn21)[C@H]1CC[C@H](O)CC1 [NAVOXIMOD] ; field requested: AUC(0-inf) 3930

###

experiment: Oral bioavailability in dog at 150 mg/kg administered as single dose; assay type: ADME, organism-based, Canis lupus familiaris; conditions: in vivo
measured attribute: bioavailability (%)
Numbers only, in %.

Query (compound): O[C@H](C[C@H]1c2c(F)cccc2-c2cncn21)[C@H]1CC[C@H](O)CC1 [NAVOXIMOD] ; field requested: bioavailability 71.8

###

assay: Half life in C57Bl6 mouse at 100 mg/kg, po administered as single dose; assay type: ADME, organism-based; conditions: in vivo
measured attribute: half-life (h)
Answers are plain numbers, in h.

Query (compound): O[C@H](C[C@H]1c2c(F)cccc2-c2cncn21)[C@H]1CC[C@H](O)CC1 ; field requested: half-life 3.3

The origin of these recorded values is ChEMBL document CHEMBL4364294.
